# ASSAY: Solubility of the compound at pH 7.4
# PROTOCOL CONDITIONS: buffer
I would appreciate it if you labelled entries Fulfilled when solubility is 1 µM or higher, otherwise Not fulfilled.

>  <COMPOUND>
Cc1ccc(NC(=O)c2cc(C(F)(F)F)cnn2)cc1-c1ccc2c(c1)OC1(CCOCC1)CC(=O)N2C

>  <GROUP>
Fulfilled

$$$$
>  <COMPOUND>
Cc1ccc(NC(=O)c2ccnc(C(F)(F)F)c2)cc1-c1ccc2c(c1)OC1(CCOCC1)CNC2=O

>  <GROUP>
Fulfilled

$$$$
>  <COMPOUND>
Cc1ccc(NC(=O)c2nccc(C(F)(F)F)n2)cc1-c1ccc2c(c1)OC1(CCOCC1)CC(=O)N2

>  <GROUP>
Fulfilled

$$$$
>  <COMPOUND>
Cc1ccc(NC(=O)c2cc(C(F)(F)F)ccn2)cc1-c1ccc2c(c1)OC1(CCOCC1)CC(=O)N2

>  <GROUP>
Fulfilled

$$$$
>  <COMPOUND>
Cc1ccc(NC(=O)c2cncc(C(F)(F)F)c2)cc1-c1ccc2c(c1)OC1(CCOCC1)CC(=O)N2

>  <GROUP>
Not fulfilled

$$$$
>  <COMPOUND>
Cc1ccc(NC(=O)c2cc(C(F)F)cnn2)cc1-c1ccc2c(c1)OC1(CCOCC1)CC(=O)N2

>  <GROUP>
Fulfilled

$$$$
>  <COMPOUND>
Cc1ccc(NC(=O)c2ccnc(C(F)(F)F)c2)cc1-c1ccc2c(c1)OC1(CCOCC1)CN(C)C2=O

>  <GROUP>
Fulfilled

$$$$
>  <COMPOUND>
COc1nnc(C(=O)Nc2ccc(C)c(-c3ccc4c(c3)OC3(CCOCC3)CC(=O)N4)c2)cc1C(F)(F)F

>  <GROUP>
Fulfilled

$$$$
>  <COMPOUND>
Cc1ccc(NC(=O)c2cc(OCCO)nc(OC(F)F)c2)cc1-c1ccc2c(c1)OC1(CCOCC1)CC(=O)N2

>  <GROUP>
Not fulfilled

$$$$
>  <COMPOUND>
Cc1ccc(NC(=O)c2cc(C(F)(F)F)ncn2)cc1-c1ccc2c(c1)OC1(CCOCC1)CC(=O)N2

>  <GROUP>
Not fulfilled

$$$$
>  <COMPOUND>
Cc1ccc(NC(=O)c2cnnc(C(F)(F)F)c2)cc1-c1ccc2c(c1)OC1(CCOCC1)CC(=O)N2

>  <GROUP>
Not fulfilled

$$$$
>  <COMPOUND>
Cc1ccc(NC(=O)c2ccnc(C(F)(F)F)c2)cc1-c1cc(OCCO)nc(N2CCOCC2)c1 [NAPORAFENIB]

>  <GROUP>
Fulfilled

$$$$
>  <COMPOUND>
Cc1ccc(NC(=O)c2ccnc(OC(F)F)c2)cc1-c1ccc2c(c1)OC1(CCOCC1)CC(=O)N2

>  <GROUP>
Not fulfilled

$$$$
>  <COMPOUND>
Cc1ccc(NC(=O)c2ccnc(C(F)(F)F)c2)cc1-c1ccc2c(c1)OC1(CCOCC1)CC(=O)N2

>  <GROUP>
Not fulfilled

$$$$
>  <COMPOUND>
Cc1ccc(NC(=O)c2ccnc(C(F)(F)F)c2)cc1-c1ccc2c(c1)OC1(CCOCC1)CN(CCO)C2=O

>  <GROUP>
Fulfilled

$$$$
>  <COMPOUND>
Cc1ccc(NC(=O)c2ccnc(C3CC3)c2)cc1-c1ccc2c(c1)OC1(CCOCC1)CC(=O)N2

>  <GROUP>
Not fulfilled

$$$$
